// provenance: ChEMBL document CHEMBL2375287

pKi: −log10 of the molar value.
Quick note: these are pKi numbers for system: UniProt:Q9H3N8
parameter.measured: pKi

| structure.smiles | parameter.measured | recorded.measurement |
| --- | --- | --- |
| Nc1nc(N2CCNCC2)c2ccc(-c3ccco3)cc2n1 | pKi | 7.82 |
| CCc1ccc2c(N3CCNCC3)nc(N)nc2c1 | pKi | 7.83 |
| Nc1nc(N2CCNCC2)c2ccc(C3CC3)cc2n1 | pKi | 7.94 |

---

pKd: −log10 of the molar value.
Quick note: these are pKd numbers for system: Histamine H4 receptor (Homo sapiens)

| structure.smiles | pKd |
| --- | --- |
| CNC1CN(c2nc(N)nc3cc(C4CCCC4)cnc23)C1 | 7.99 |
| CCc1cnc2c(N3CC[C@@H](NC)C3)nc(N)nc2c1 | 7.67 |
| CN[C@@H]1CCN(c2cc(NCC3CC3)nc(N)n2)C1 | 7.60 |
| CNC1CN(c2nc(N)nc3cc(C4CC4)cnc23)C1 | 7.87 |
| Nc1nc(N2CCNCC2)c2ccc(-c3ccco3)cc2n1 | 7.39 |

---

test.target: Voltage-gated inwardly rectifying potassium channel KCNH2 (Homo sapiens)
Sequence (Q12809 whole entry): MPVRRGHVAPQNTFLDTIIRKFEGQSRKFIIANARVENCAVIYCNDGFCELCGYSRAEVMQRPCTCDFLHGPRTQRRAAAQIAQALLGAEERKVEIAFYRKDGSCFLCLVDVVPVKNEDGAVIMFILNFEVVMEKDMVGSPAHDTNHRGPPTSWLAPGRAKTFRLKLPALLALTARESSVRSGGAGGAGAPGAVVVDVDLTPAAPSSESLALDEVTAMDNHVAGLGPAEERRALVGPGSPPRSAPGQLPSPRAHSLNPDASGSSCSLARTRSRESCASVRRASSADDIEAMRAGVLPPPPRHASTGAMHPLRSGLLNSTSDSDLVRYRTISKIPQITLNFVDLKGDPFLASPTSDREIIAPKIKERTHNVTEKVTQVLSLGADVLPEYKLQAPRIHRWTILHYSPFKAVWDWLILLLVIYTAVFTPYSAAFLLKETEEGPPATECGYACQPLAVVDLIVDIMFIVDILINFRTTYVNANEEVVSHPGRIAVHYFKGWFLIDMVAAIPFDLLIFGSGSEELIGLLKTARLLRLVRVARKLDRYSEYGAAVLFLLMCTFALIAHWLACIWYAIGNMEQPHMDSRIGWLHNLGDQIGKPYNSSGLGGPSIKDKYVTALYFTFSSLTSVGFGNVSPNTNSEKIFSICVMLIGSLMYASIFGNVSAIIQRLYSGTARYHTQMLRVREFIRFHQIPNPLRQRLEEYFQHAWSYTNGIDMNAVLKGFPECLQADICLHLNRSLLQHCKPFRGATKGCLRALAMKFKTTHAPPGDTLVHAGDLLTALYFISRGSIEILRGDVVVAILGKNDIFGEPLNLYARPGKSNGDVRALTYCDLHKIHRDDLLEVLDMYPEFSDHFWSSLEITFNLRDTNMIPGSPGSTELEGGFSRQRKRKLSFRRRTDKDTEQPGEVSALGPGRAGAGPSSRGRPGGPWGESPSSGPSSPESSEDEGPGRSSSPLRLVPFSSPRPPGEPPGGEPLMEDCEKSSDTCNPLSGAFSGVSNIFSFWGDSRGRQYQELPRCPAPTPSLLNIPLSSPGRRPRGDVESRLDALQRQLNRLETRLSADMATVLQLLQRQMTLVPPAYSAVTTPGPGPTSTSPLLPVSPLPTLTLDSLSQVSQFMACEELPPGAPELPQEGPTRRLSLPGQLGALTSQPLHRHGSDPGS
pKi: −log10 of the molar value.
Values of pKi greater than or equal to 5 map to satisfied; values below map to not satisfied.

| molecule | test.target | label.value |
| --- | --- | --- |
| CCc1ccc2c(N3CC[C@@H](NC)C3)nc(N)nc2c1 | Voltage-gated inwardly rectifying potassium channel KCNH2 (Homo sapiens) | satisfied |
| CNC1CN(c2nc(N)nc3cc(C4CCCC4)ccc23)C1 | Voltage-gated inwardly rectifying potassium channel KCNH2 (Homo sapiens) | satisfied |
| Nc1nc(N2CCNCC2)c2ccc(C3CCCC3)cc2n1 | Voltage-gated inwardly rectifying potassium channel KCNH2 (Homo sapiens) | satisfied |
| CNC1CN(c2nc(N)nc3cc(C4CC4)ccc23)C1 | Voltage-gated inwardly rectifying potassium channel KCNH2 (Homo sapiens) | satisfied |
| CNC1CN(c2nc(N)nc3cc(C4CCCC4)cnc23)C1 | Voltage-gated inwardly rectifying potassium channel KCNH2 (Homo sapiens) | not satisfied |
| CCc1cnc2c(N3CC[C@@H](NC)C3)nc(N)nc2c1 | Voltage-gated inwardly rectifying potassium channel KCNH2 (Homo sapiens) | not satisfied |
| Nc1nc(N2CCNCC2)c2ccc(C3CC3)cc2n1 | Voltage-gated inwardly rectifying potassium channel KCNH2 (Homo sapiens) | satisfied |
| CN[C@@H]1CCN(c2cc(NCC3CC3)nc(N)n2)C1 [ADRIFORANT] | Voltage-gated inwardly rectifying potassium channel KCNH2 (Homo sapiens) | satisfied |
| CCc1cnc2c(N3CC(NC)C3)nc(N)nc2c1 | Voltage-gated inwardly rectifying potassium channel KCNH2 (Homo sapiens) | not satisfied |
| CNC1CN(c2nc(N)nc3cc(C#N)cnc23)C1 | Voltage-gated inwardly rectifying potassium channel KCNH2 (Homo sapiens) | not satisfied |
| CCc1ccc2c(N3CC(NC)C3)nc(N)nc2c1 | Voltage-gated inwardly rectifying potassium channel KCNH2 (Homo sapiens) | satisfied |
| CNC1CN(c2nc(N)nc3cc(C4CC4)cnc23)C1 | Voltage-gated inwardly rectifying potassium channel KCNH2 (Homo sapiens) | not satisfied |
| CCc1ccc2c(N3CCNCC3)nc(N)nc2c1 | Voltage-gated inwardly rectifying potassium channel KCNH2 (Homo sapiens) | satisfied |
| CN[C@@H]1CCN(c2nc(N)nc3cc(C4CC4)cnc23)C1 | Voltage-gated inwardly rectifying potassium channel KCNH2 (Homo sapiens) | not satisfied |

---

test.target: Histamine H4 receptor (Homo sapiens, UniProt Q9H3N8)
Sequence (Q9H3N8 whole entry): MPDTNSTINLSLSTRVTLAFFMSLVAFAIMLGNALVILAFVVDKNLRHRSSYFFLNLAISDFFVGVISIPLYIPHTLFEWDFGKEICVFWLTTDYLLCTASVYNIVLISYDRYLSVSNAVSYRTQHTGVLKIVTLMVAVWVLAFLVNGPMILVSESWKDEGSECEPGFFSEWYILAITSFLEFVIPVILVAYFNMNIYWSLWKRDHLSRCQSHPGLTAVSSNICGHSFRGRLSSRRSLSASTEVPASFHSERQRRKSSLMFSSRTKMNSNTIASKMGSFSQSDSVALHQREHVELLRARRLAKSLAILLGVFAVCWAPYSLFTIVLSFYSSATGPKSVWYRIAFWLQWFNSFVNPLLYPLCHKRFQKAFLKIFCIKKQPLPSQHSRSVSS
experiment.summary: Antagonist activity at human histamine H4 receptor expressed in HEK cells assessed as inhibition of histamine-induced [35S]GTPgammaS binding
parameter.measured: IC50

| structure.smiles | recorded.measurement |
| --- | --- |
| CCc1cnc2c(N3CC[C@@H](NC)C3)nc(N)nc2c1 | 126 nM |
| CNC1CN(c2nc(N)nc3cc(C4CCCC4)cnc23)C1 | 97.7 nM |
| CN[C@@H]1CCN(c2cc(NCC3CC3)nc(N)n2)C1 | 53.7 nM |
| CNC1CN(c2nc(N)nc3cc(C4CC4)cnc23)C1 | 70.8 nM |
| CCc1cnc2c(N3CC(NC)C3)nc(N)nc2c1 | 112 nM |

---

Readings of Ratio Ki for the listed molecules
Species: Homo sapiens
experiment.summary: Selectivity ratio of Ki for human histamine H3 receptor to Ki for human histamine H4 receptor
parameter.measured: Ratio Ki

| structure.smiles | parameter.measured | recorded.measurement |
| --- | --- | --- |
| CN[C@@H]1CCN(c2nc(N)nc3cc(C4CC4)ccc23)C1 | Ratio Ki | 8 |
| CNC1CN(c2nc(N)nc3cc(C#N)cnc23)C1 | Ratio Ki | 186 |
| CNC1CN(c2nc(N)nc3cc(C(C)(C)C)ccc23)C1 | Ratio Ki | 32 |
| CC(C)(C)c1ccc2c(N3CCNCC3)nc(N)nc2c1 | Ratio Ki | 24 |
| CCc1ccc2c(N3CC(NC)C3)nc(N)nc2c1 | Ratio Ki | 89 |
| CCc1cnc2c(N3CC(NC)C3)nc(N)nc2c1 | Ratio Ki | 72 |
